Tested on: L. acidophilus NCFM
MEASUREMENT DESCRIPTION: RNA-seq transcriptional analysis of L. acidophilus NCFM growing on plant glycosides
Type: cell-based, Lactobacillus acidophilus
CONDITION SUMMARY: gene LBA0330 (Hypothetical protein)
VALUE KIND: Transcripts per million (rpm)
Give the value, in units of rpm, as a plain number.

Value wanted: Transcripts per million (rpm) (L. acidophilus NCFM) of entry O=c1ccc2cc(O[C@@H]3O[C@H](CO)[C@@H](O)[C@H](O)[C@H]3O)c(O)cc2o1 [Esculin]
211.2

Value wanted: Transcripts per million (rpm) (L. acidophilus NCFM) of entry OC[C@H]1O[C@@H](O[C@H]2[C@H](O)[C@@H](O)[C@@H](O)O[C@@H]2CO)[C@H](O)[C@@H](O)[C@H]1O [Lac]
26.6

Value wanted: Transcripts per million (rpm) (L. acidophilus NCFM) of entry N#C[C@H](O[C@@H]1O[C@H](CO[C@@H]2O[C@H](CO)[C@@H](O)[C@H](O)[C@H]2O)[C@@H](O)[C@H](O)[C@H]1O)c1ccccc1 [Amygdalin]
18.2

Value wanted: Transcripts per million (rpm) (L. acidophilus NCFM) of entry OCc1ccccc1O[C@@H]1O[C@H](CO)[C@@H](O)[C@H](O)[C@H]1O [Salicin]
27.3
